# Tested on: Coxsackie virus B6
# Protocol details: Coxsackie virus activity assay (CPE in Vero cells)
# Assay type: cell-based
# Condition parameters: Vero, read-out: COX-B6 IC50, Vero cells, about 100TCID50, CPE, Reed-Muench
Measure: IC50 (µg/mL)
Response body: numeric value in µg/mL, unit text excluded.

COC(=O)c1c(/C=C/c2cc(OC)c(OC)c(OC)c2)cc(OC)c(CC=C(C)C)c1O; 1.65
COC(=O)c1c(/C=C/c2ccccc2)cc(OC)c(CC=C(C)C)c1OC(=O)CN(C)C [Compound 24m]; 3.46
COc1cc(/C=C/c2cc(OC)c(OC)c(OC)c2)c(C(=O)O)c(O)c1CC=C(C)C; 0.14
COc1cc(/C=C/c2ccccc2)c(C(=O)NC(N)=O)c(O)c1CC=C(C)C [Compound 23a]; 0.32

Kindly review the next molecule as well.
Ask: Query for Coxsackie virus B6: what IC50 does the record show for COc1cc(/C=C/c2ccccc2)c(C(=O)O)c(OC(=O)CN(C)C)c1CC=C(C)C [Compound 24n] ?
Reply: 1.35

----------
Recorded log10 IC50 for the following compounds
# System: Coxsackie virus B6
# Protocol details: Coxsackie virus activity assay (CPE in Vero cells)
# Format: cell-based
# Condition parameters: Vero, read-out: COX-B6 IC50, Vero cells, about 100TCID50, CPE, Reed-Muench
# log10 transformed; quantity=IC50; unit=µg/mL

Completed entries (count: 5):
COc1cc(/C=C/Cc2ccccc2)cc(OC)c1 [Compound 21a]; 0.63
COc1cc(/C=C/c2ccc(O)cn2)c(C(=O)O)c(O)c1CC=C(C)C; 0.77
COc1cc(/C=C/c2cc(O)ccn2)c(C(=O)O)c(O)c1CC=C(C)C; -0.27
COc1cc(/C=C/c2cc(O)c(O)c(O)c2)cc(OC)c1 [Compound 21j]; 0.13
COc1cc(/C=C/c2ccccc2)cc(OCN)c1CC=C(C)C [Compound 26c]; 0.42

Kindly review the next compound as well.
Ask: Can you look up the measured log10 IC50 of COc1cc(/C=C/c2ccccc2)cc(O)c1CCC(C)C [Compound 10w] for me?
Reply: 0.39

----------
# Test system: HIV-1 III B virus
# Protocol details: Anti-HIV activity assay (P24 antigen in MT-4 cells)
# Type: cell-based
# Condition parameters: Human immunodeficiency virus 1, MT4, 96 h, MT-4 cells, HIV-1 III B 100TCID50, 96 h, P24 antigen; read-out: HIV IC50
Measure: IC50 (µg/mL)
Response body: numeric value in µg/mL, unit text excluded.

Completed entries (count: 5):
COC(=O)c1c(/C=C/c2ccccc2)cc(OC)c(CC=C(C)C)c1OC(=O)c1cccnc1 [Compound 24j]; 2.65
COc1cc(/C=C/c2ccc(O)cc2)cc(O)c1CC=C(C)C [Compound 10q]; 2.38
COC(=O)c1c(O)c(CC=C(C)C)c(OC)c(Cl)c1/C=C/c1ccccc1 [Compound 12]; 8.17
COc1cc(/C=C/c2ccccc2)c(C(=O)O)c(OC(=O)c2cccnc2)c1CC=C(C)C [Compound 24k]; 2.17
COc1cc(/C=C(\C)c2ccccc2)c(C(=O)O)c(O)c1CC=C(C)C [Compound 1i]; 1.31

Ask: Can you look up the measured IC50 of COC(=O)c1c(/C=C/c2c(OC)cccc2OC)cc(OC)c(CC=C(C)C)c1O [Compound 8d] for me?
Reply: 0.86

Ask: Can you look up the measured IC50 of COc1cc(/C=C/c2ccncc2)cc(O)c1CC=C(C)C [Compound 10r] for me?
Reply: 1.73

Ask: Can you look up the measured IC50 of COc1cc(/C=C/c2cc(OC)c(OC)c(OC)c2)cc(O)c1CC=C(C)C [Compound 10y] for me?
Reply: 1.66

Ask: Can you look up the measured IC50 of COc1cc(/C=C/c2ccccc2)c(C(=O)O)c(OCN)c1CC=C(C)C [Compound 26b] for me?
Reply: 7.83

Ask: Can you look up the measured IC50 of COc1cc(/C=C/c2cc(O)ccn2)cc(O)c1CC=C(C)C [10a′] for me?
Reply: 1.33

Ask: Can you look up the measured IC50 of COC(=O)c1c(CCc2ccccc2)cc(OC)c(CC=C(C)C)c1O [Compound 36] for me?
Reply: 1.06

Ask: Can you look up the measured IC50 of COc1cccc(/C=C/c2cc(O)c(CC=C(C)C)c(OC)c2)n1 [10f′] for me?
Reply: 1.04

Ask: Can you look up the measured IC50 of COc1cccc(/C=C/c2cc(OC)c(CC=C(C)C)c(O)c2C(=O)O)n1 [1b′] for me?
Reply: 3.19

Ask: Can you look up the measured IC50 of COc1cc(/C=C/C2CCCCC2)cc(O)c1CC=C(C)C [Compound 10p] for me?
Reply: 7.19

Ask: Can you look up the measured IC50 of COc1ccnc(/C=C/c2cc(O)c(CC=C(C)C)c(OC)c2)c1 [Compound 10z] for me?
Reply: 2.83

Ask: Can you look up the measured IC50 of COc1cc(/C=C/c2cc(O)ccn2)c(C(=O)O)c(O)c1CC=C(C)C [Compound 1w] for me?
Reply: 2.87

Ask: Can you look up the measured IC50 of Oc1cc(O)cc(/C=C/Cc2ccccc2)c1 [Compound 21b] for me?
Reply: 0.88

Ask: Can you look up the measured IC50 of COc1cc(/C=C/c2ccccc2)c(C(=O)O)c(OCC2CNCCN2)c1CC=C(C)C (stereo not shown) [Compound 26e] for me?
Reply: 2.77

Ask: Can you look up the measured IC50 of COc1cc(/C=C/c2ccccc2)cc(OC(=O)CN(C)C)c1CC=C(C)C [Compound 24o] for me?
Reply: 0.69

Ask: Can you look up the measured IC50 of COc1cc(/C=C/c2ccccc2)c(C(=O)O)c(O)c1C/C=C(\C)CCC=C(C)C [Compound 1o] for me?
Reply: 1.76

Ask: Can you look up the measured IC50 of COc1c(Cl)c(/C=C/c2ccccc2)cc(O)c1CC=C(C)C [Compound 10s] for me?
Reply: 2.75

Ask: Can you look up the measured IC50 of COc1cc(/C=C/CCc2ccccc2)c(C(=O)O)c(O)c1CC=C(C)C [Compound 1l] for me?
Reply: 1.64

Ask: Can you look up the measured IC50 of COc1cc(/C=C/c2ccccc2)c(C(=O)OCC(O)CO)c(O)c1CC=C(C)C (stereo not shown) [Compound 9e] for me?
Reply: 0.73

From: patent US9359298B2
